Each entry below carries its reported change of melting temperature, mutant - wild type (higher = more stable).
B1: Guanyl-specific ribonuclease Sa, P05798 (parent)
chain: DVSGTVCLSALPPEATDTLNLIASDGPFPYSQDGVVFQNRESVLPTQSYGYYHEYTVITPGARTRGTRRIITGEATQEDYYTGDHYATFSLIDQTC

# Variants of: B1
# Measurement Setup: Kitasatospora aureofaciens; pH 7; Thermal; DSC; PIPES 0.03 M; reversible: yes (90-95%); structure 1RGG; whole UniProt chain shown
Recorded Metric: change of melting temperature, mutant - wild type (higher = more stable) (°C)

| Sequence Variant | Test Result |
| --- | --- |
| E41K | -2.5 |
| Q38A | 3.5 |
| E54Q | -5.9 |
| H85Q | 0.1 |
| R65A | -3.4 |
